- METHOD SUMMARY: Pharmacokinetics and relative bioavailability after a single oral dose (two liquid formulations, powder in capsule)
- Format: in vivo, male Beagle dogs
- ASSAY CONDITIONS: male, Beagle, dog, plasma, po, 5 mg/kg, Formulation #1 (Table 43), 5 mg/kg oral, male Beagle dogs, individual dog
- Excerpt: The purpose of the study is to dose two suspension formulations of Compound 2 at two dose levels by gavage to Beagle dogs and to collect blood samples for the determination of plasma concentrations, derivation of pharmacokinetic parameters and to determine the relative bioavailability of the two suspension formulations. […]
READOUT LABEL: Tmax (h)
Give bare numbers, in h.

Data request, read-out Tmax, for COc1cc(Nc2nccc(Nc3cccnc3-c3ccccn3)n2)ccc1N1CCN(C)CC1 [Compound 2]
4

====

- METHOD SUMMARY: Pharmacokinetics and relative bioavailability after a single oral dose (two liquid formulations, powder in capsule)
- Assay type: in vivo, male Beagle dogs
- ASSAY CONDITIONS: male, Beagle, dog, plasma, po, 2 mg/kg, Formulation #1 (Table 43), 2 mg/kg oral, male Beagle dogs, plasma, Mean; read-out: Vz/F
READOUT LABEL: Vd/F
Reply with the number, then its unit.

Data request, read-out Vd/F, for COc1cc(Nc2nccc(Nc3cccnc3-c3ccccn3)n2)ccc1N1CCN(C)CC1
237 L/kg

====

- METHOD SUMMARY: Kinetic solubility in pH 2, 5 and 7 buffers at RT
- Assay type: physicochemical
- ASSAY CONDITIONS: 19 °C, aqueous buffer, thermodynamic from solid; pH 5 buffer, 4 hrs, RT; read-out: S: solubility
READOUT LABEL: solubility at 4 h
Reply with the number, then its unit.

Data request, read-out solubility at 4 h, for COc1cc(Nc2nccc(Nc3cccnc3-c3ccccn3)n2)ccc1N1CCN(C)CC1 [Freebase Form A]
6300 µg/mL

====

- METHOD SUMMARY: Pharmacokinetic and tissue distribution study
- Format: in vivo, CD-1 male mice
- ASSAY CONDITIONS: male, CD-1, mouse; mice, 20 mg/kg PO; lung
READOUT LABEL: Cmax (ng/g)
Numbers only, in ng/g.

Data request, read-out Cmax, for COc1cc(Nc2nccc(Nc3cccnc3-c3ccccn3)n2)ccc1N1CCN(C)CC1 [Compound 2]
18300

====

- METHOD SUMMARY: Pharmacokinetic and tissue distribution study
- Assay type: in vivo, CD-1 male mice
- ASSAY CONDITIONS: male, CD-1, mouse; mice, 20 mg/kg PO; bone marrow
READOUT LABEL: Cmax (ng/mL)
Give bare numbers, in ng/mL.

Data request, read-out Cmax, for COc1cc(Nc2nccc(Nc3cccnc3-c3ccccn3)n2)ccc1N1CCN(C)CC1
240

====

- METHOD SUMMARY: Pharmacokinetic and tissue distribution study
- Assay type: in vivo, CD-1 male mice
- ASSAY CONDITIONS: male, CD-1, mouse; mice, 20 mg/kg PO; kidney
READOUT LABEL: half-life (h)
Answers are plain numbers, in h.

Data request, read-out half-life, for COc1cc(Nc2nccc(Nc3cccnc3-c3ccccn3)n2)ccc1N1CCN(C)CC1
2.5

====

- METHOD SUMMARY: Pharmacokinetic and tissue distribution study
- Type: in vivo, CD-1 male mice
- ASSAY CONDITIONS: male, CD-1, mouse; mice, 20 mg/kg PO; bladder
READOUT LABEL: half-life (h)
Give bare numbers, in h.

Data request, read-out half-life, for COc1cc(Nc2nccc(Nc3cccnc3-c3ccccn3)n2)ccc1N1CCN(C)CC1
3.1

# credit: patent US11040038B2
